Provenance of the data: patent US20260242478A1

Here, each record is paired with measured phage binding ELISA signal (Anti-PSMA Fab, PSMA antigen present) data.
# MEASURED_ON: T1, PSMA Fab (006 PSMA Fab)
# T1 construct: In the phage ELISA the PSMA Fab was biotinylated and captured on neutravidin coated plates; also called Anti-PSMA Fab; anti-PSMA Fab
# PROCEDURE_DETAILS: phage ELISA; PSMA Fab on plate pre-incubated with PSMA antigen as competitor, anti-M13 HRP detection;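 further: crude clonal phage supernatants added to Fab-coated wells still holding PSMA antigen in blocking buffer, with bound phage as read-out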
Where no end group is shown, it is not given here.
RECORDED_METRIC: phage binding ELISA signal (Anti-PSMA Fab, PSMA antigen present)

BINDER	ASSAY_VALUE
DIRWCTPPWMCMHL [Phage-2822 (Peptide-180 library clone)]	0.258
EVKWCTPYWMCIDT [Phage-2833 (Peptide-180 library clone)]	0.072
FEKWCTPLWMCADS (cysteine pairing not given here; also: fused to pIII, displayed on bacteriophage) [Phage-2820 (Peptide-180 library clone)]	0.0612
QAIWCIPDWMCVQN [Phage-2830 (Peptide-180 library clone)]	0.137
WDNWCTPSWMCSTA [Phage-2821 (Peptide-180 library clone)]	0.0814
EFKWCSPAQLCVNG [Phage-2832 (Peptide-180 library clone)]	0.0526
GVNWCVPPWMCLND [Phage-2823 (Peptide-180 library clone)]	0.0879
IDKWCKPVWMCADN (cysteine pairing not given here; also: fused to pIII, displayed on bacteriophage) [Phage-2819 (Peptide-180 library clone)]	0.0659
AFPSCIPEWMCSGM [Phage-2831 (Peptide-180 library clone)]	0.149
LEKWCIPSQLCQLD [Phage-2827 (Peptide-180 library clone)]	0.0743
NTNWCTPPWMCEGL [Phage-2834 (Peptide-180 library clone)]	0.0664
GLPWCVPQWMCVVS [Phage-2824 (Peptide-180 library clone)]	0.0721
YHKWCTPEWMCVFD [Phage-2825 (Peptide-180 library clone)]	0.0666
GEKWCSPAWMCEWL [Phage-2828 (Peptide-180 library clone)]	0.0817
DVKWCTPRWMCELS [Phage-2829 (Peptide-180 library clone)]	0.0913
SSNWCTPAWMCVTS [Phage-2826 (Peptide-180 library clone)]	0.0627
